# maps each entry to its pKi
Biological target: HPK1 (Homo sapiens (Human))
Sequence (Q92918 1-346 limits assumed): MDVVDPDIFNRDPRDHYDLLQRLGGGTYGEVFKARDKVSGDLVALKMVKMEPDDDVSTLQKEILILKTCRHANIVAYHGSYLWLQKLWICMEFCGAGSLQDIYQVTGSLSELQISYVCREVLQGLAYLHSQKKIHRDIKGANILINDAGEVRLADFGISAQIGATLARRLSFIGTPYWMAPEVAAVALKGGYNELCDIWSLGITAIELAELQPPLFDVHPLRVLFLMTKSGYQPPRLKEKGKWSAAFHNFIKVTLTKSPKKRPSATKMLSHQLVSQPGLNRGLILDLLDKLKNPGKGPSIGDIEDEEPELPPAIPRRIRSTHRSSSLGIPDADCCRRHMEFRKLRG
Note on pKi: it is the negative log10 of concentration, concentration in mol/L.

Solved cases below.
>  <Molecule>
CN(C)C(=O)c1c(N)ccc(-c2cnc3c(c2Cl)[C@]2(CC[C@H](C(N)=O)C2)CN3)c1F (single isomer, unassigned) [Compound 100a]

>  <Subject Of Test>
HPK1 (Homo sapiens (Human))

>  <Quantity>
pKi

>  <Numeric Result>
7.20

$$$$
>  <Molecule>
CNS(=O)(=O)c1cccc(-c2cnc3c(c2Cl)C2(CC=CC2)CN3)c1 [Compound 185]

>  <Subject Of Test>
HPK1 (Homo sapiens (Human))

>  <Quantity>
pKi

>  <Numeric Result>
7.12

$$$$
>  <Molecule>
Cc1c(CC#N)ccnc1-c1cccc(-c2cnc3c(c2Cl)[C@]2(CC[C@](C)(C#N)C2)CN3)c1F (single isomer, unassigned) [Compound 266a]

>  <Subject Of Test>
HPK1 (Homo sapiens (Human))

>  <Quantity>
pKi

>  <Numeric Result>
7.19

$$$$
>  <Molecule>
CC(=O)NC1CN(C(=O)c2cccc(-c3cnc4c(c3Cl)C3(CC3)CN4)c2F)C1 [Compound 50]

>  <Subject Of Test>
HPK1 (Homo sapiens (Human))

>  <Quantity>
pKi

>  <Numeric Result>
6.86

$$$$

Then this molecule:
Record CN(C)C(=O)c1c(N)ccc(-c2cnc3c(c2Cl)[C@@]2(CC[C@@](C)(C(N)=O)C2)CN3)c1F (single isomer, unassigned) [Compound 155b] ; system HPK1 (Homo sapiens (Human)); pKi = 7.07
